# credit: PubChem BioAssay (NCI)

# Test system: DU-145 prostate
# measurement-notes: NCI tumour cell line growth inhibition, 48 h; in the data active = GI50 below about 0.43 µM; inactive = the rest
Reply using exactly one outcome from active, inactive

Known results for compounds:
COC(=O)[C@]12CC[C@@H](C)[C@H](C)[C@@H]1C1=CC[C@@H]3[C@@]4(C)CC(=O)[C@H](O)[C@@](C)(CO)[C@@H]4C(=O)C[C@@]3(C)[C@]1(C)CC2 :: inactive
CCOC(=O)c1cc(-c2ccccc2)[nH]c1N/N=C/c1c(Cl)cccc1Cl :: inactive
CC1(O)COCCCCOc2c(CN)cccc2NC(=O)c2nc(cnc2N)-c2ccc(cc2)S(=O)(=O)C(C)(C)C1 (centres undefined) :: active
CC(C)[C@H](C(=O)O[C@@H]1/C=C/C(=O)O[C@@H](C)CCC/C=C/[C@@H]2C[C@H](O)C[C@H]21)N(C)C :: inactive
COc1cc(Cn2c(SCC(=O)Nc3ccc(Cl)cc3)nc3ccccc3c2=O)cc(OC)c1OC :: inactive
Fc1ccc(-c2nn3c(COc4ccc(Cl)cc4Cl)nnc3s2)cc1Oc1ccccc1 :: inactive
N=C1/C(=C2\Nc3ccccc3S2)CC(=O)N1c1ccc(SC(F)F)cc1 :: inactive
Cc1cn2c(/C=C3/C(=O)Nc4ccc(Cl)cc43)c(C)nc2s1 :: inactive

Now examine the next entry.
Kindly provide the recorded test outcome for the following compound: CNCCNc1nc2ccccc2c2c(=O)c3cccc(C)c3sc12
inactive

----------
# Tested on: T-47D breast
# measurement-notes: NCI tumour cell line growth inhibition, 48 h
Where a SMILES comes first, the peptide text is derived from it. [ ]: non-standard residue; d: D form. The star is where a group is joined. Phe(4-NO2) = N[CH](Cc1ccc([N+](=O)[O-])cc1)C(=O)O; Boc = CC(C)(C)OC(=O)*
assay-metric: TGI

Fc1ccc(-c2c(-c3ccncc3)[nH]c3nccnc23)cc1 :: > 25 µM
CCCCc1ccc(Nc2nc(Cl)c3ncn(C4CC(Oc5ccc(C)cc5)C(COc5ccc(C)cc5)O4)c3n2)cc1 (configuration not stated) :: > 100 µM
CC(=O)N(CCCCNC(=O)C(F)(F)F)CCCNC(=O)C(F)(F)F :: > 100 µM
Cc1[nH]n(-c2cccc(Cl)c2)c(=O)c1/C=C1\C=c2ccccc2=CC1=O :: > 100 µM
CCCCCCSc1nc(COC(=O)NC)c(COC(=O)NC)n1C :: > 100 µM
COc1ccc(/C=C2\CCC(Cc3ccccc3)(CN(C)C)C2=O)cc1 (configuration not stated) :: > 100 µM
COC(=O)/C=C1\CCCN1CCc1cc2c(cc1CC#N)OCO2 :: > 100 µM
CC1CC(Br)C(=O)O1 (configuration not stated) :: > 100 µM

Kindly note the recorded TGI for O=C(NNC(=O)c1ccccc1O)c1ccco1 , which is > 100 µM

// TGI value for COc1ccc2c(c1)CCc1c-2n(CCN2CCOCC2)c2ccc(OC)cc12 : > 100 µM

// CCCCCC1=C2C(c3ccc(OC)cc3)=C(N)C(c3ccc(OC)cc3)=C3NC(=O)C(C=C1)C32 (configuration not stated) : TGI value = > 100 µM

Per the records, this compound ( CSc1nc(Br)nc2ncn(C3CC(Oc4ccc(C)cc4)C(COc4ccc(C)cc4)O3)c12 (configuration not stated) ) has TGI equal to > 100 µM

Item: c1cc2c(c(NC3=NCCN3)c1)CCCC2 | TGI: > 100 µM

TGI reported for this compound Cc1ccc([N+](=O)[O-])cc1S(=O)(=O)Nc1ccc(C2=NOC(c3ccccc3O)C2)cc1 (configuration not stated) : > 100 µM

For this compound ( CC1(O)COCCCCOc2c(CN)cccc2NC(=O)c2nc(cnc2N)-c2ccc(cc2)S(=O)(=O)C(C)(C)C1 (configuration not stated) ), measured TGI is 3.27 µM

The recorded TGI for entry COC(=O)CCC(NC(=O)OC(C)(C)C)C(=O)NC(Cc1ccc([N+](=O)[O-])cc1)C(=O)NC(CCC(=O)OC)C(=O)OC (configuration not stated) (Boc-Glu(OMe)-[Phe(4-NO2)]-Glu(OMe)-OMe; configuration not given here) equals > 100 µM
